# studySystem: ALK (Homo sapiens, UniProt Q9UM73)
# Construct: host or cells: baculovirus expression system
# Sequence (Q9UM73 19-1620): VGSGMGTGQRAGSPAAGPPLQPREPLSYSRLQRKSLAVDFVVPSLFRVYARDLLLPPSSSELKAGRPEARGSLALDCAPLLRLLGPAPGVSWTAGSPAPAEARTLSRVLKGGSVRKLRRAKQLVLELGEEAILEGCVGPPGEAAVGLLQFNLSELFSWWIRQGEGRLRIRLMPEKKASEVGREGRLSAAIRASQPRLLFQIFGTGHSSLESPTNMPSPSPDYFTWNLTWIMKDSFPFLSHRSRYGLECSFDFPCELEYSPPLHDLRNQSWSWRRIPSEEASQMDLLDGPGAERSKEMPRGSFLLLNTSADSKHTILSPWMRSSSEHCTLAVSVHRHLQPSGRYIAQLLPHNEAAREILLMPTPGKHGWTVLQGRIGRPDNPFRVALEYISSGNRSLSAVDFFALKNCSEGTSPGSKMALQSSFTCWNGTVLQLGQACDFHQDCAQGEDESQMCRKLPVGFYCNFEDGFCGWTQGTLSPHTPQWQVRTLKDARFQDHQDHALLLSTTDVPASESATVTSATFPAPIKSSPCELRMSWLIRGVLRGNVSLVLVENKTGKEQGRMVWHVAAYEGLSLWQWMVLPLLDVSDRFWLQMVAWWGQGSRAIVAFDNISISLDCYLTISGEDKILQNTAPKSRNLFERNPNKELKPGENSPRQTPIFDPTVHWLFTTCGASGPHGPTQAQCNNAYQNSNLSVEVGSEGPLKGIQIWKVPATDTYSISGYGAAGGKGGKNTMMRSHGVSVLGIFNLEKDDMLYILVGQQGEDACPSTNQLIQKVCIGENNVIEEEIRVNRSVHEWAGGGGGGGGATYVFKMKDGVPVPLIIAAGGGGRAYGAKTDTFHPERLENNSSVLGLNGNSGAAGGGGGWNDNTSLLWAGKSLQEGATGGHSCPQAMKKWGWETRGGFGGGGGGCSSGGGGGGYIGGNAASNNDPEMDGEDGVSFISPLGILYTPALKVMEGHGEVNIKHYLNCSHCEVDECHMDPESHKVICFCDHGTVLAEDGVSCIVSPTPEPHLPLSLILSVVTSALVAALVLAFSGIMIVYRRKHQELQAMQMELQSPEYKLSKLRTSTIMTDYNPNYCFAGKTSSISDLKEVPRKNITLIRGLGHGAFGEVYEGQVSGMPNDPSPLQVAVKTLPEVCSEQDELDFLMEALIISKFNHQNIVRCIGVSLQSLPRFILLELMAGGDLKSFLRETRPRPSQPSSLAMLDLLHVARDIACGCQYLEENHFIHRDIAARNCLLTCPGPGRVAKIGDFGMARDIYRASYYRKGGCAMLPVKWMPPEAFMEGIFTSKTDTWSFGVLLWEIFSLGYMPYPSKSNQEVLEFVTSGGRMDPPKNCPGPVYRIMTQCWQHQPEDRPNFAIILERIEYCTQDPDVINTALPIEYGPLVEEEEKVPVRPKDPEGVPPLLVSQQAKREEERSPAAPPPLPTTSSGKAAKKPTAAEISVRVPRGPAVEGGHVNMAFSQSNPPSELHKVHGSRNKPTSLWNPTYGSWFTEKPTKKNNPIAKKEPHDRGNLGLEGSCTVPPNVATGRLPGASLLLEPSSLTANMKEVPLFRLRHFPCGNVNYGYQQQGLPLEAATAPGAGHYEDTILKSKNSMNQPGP
# assayDetails: ALK Kinase Assay (ELISA/TRF, PLC-γ substrate)
# Assay type: biochemical
# measurementParameters: ALK kinase inhibition, 1 μM ATP; read-out: ALK Potency
readoutName: IC50

{"compound": "COc1cc(C2CCN(CC(N)=O)CC2)ccc1Nc1ncc2ccc(-c3cccc4c3OCC4)n2n1 [Example 703]", "readoutName": "IC50", "recordedValue": "< 0.1 µM"}
{"compound": "COc1ccccc1-c1ccc2cnc(Nc3ccc(C4CCN(C[C@H](O)CO)CC4)cc3)nn12 [Example 1125]", "readoutName": "IC50", "recordedValue": "< 0.1 µM"}

// query IC50 value for entry CC(C)(C)NS(=O)(=O)c1cccc(-c2ccc3cnc(Nc4ccc(C5CCNCC5)cc4)nn23)c1 [Example 1059]
0.1 to 1 µM

// query IC50 value for entry COc1ccc(-c2ccc3cnc(Nc4ccc5c(c4)N(C)CCO5)nn23)cn1 [Example 644]
1 to 10 µM

// query IC50 value for entry COc1cc(C2CCN(CC(=O)N3CCNCC3)CC2)ccc1Nc1ncc2ccc(-c3ccccc3OC)n2n1 [Example 1276]
< 0.1 µM

// query IC50 value for entry CC(C)(C)NS(=O)(=O)c1cccc(-c2ccc3cnc(Nc4ccc5nc(C(C)(C)C)[nH]c5c4)nn23)c1 [Example 1330]
1 to 10 µM

// query IC50 value for entry CN1CCN(c2ccc(Nc3ncc4ccc(-c5ccc(CN6CCS(=O)(=O)CC6)cc5)n4n3)cc2)CC1 [Example 1031]
< 0.1 µM

// query IC50 value for entry COc1ccccc1-c1ccc2cnc(Nc3ccn(CC(=O)N4CCOCC4)n3)nn12 [Example 1111]
0.1 to 1 µM

// query IC50 value for entry COc1ccccc1-c1ccc2cnc(Nc3ccc(C4CCN(C)CC4)c(C)c3)nn12 [Example 942]
< 0.1 µM

// query IC50 value for entry CC(C)(C)NS(=O)(=O)c1cccc(-c2ccc3cnc(Nc4ccc(N5CCOCC5)cc4)nn23)c1 [Example 561]
0.1 to 1 µM

// query IC50 value for entry COc1cc(-c2ccc3cnc(Nc4ccc(C5CCN(C)CC5)cc4)nn23)ccn1 [Example 676]
0.1 to 1 µM

// query IC50 value for entry COc1cc([C@@H]2CCNC[C@@H]2O)ccc1Nc1ncc2ccc(-c3ccccc3N(C)S(C)(=O)=O)n2n1 (racemic) [Example 841]
< 0.1 µM

* * *

# studySystem: ALK (Homo sapiens, UniProt Q9UM73)
# Construct: host or cells: baculovirus expression system
# assayDetails: ALK Kinase Assay (ELISA/TRF, PLC-γ substrate)
# Type: biochemical
# measurementParameters: ALK Kinase Inhibition; read-out: ALK Potency
pIC50: −log10 of the molar value.
Below is a list of entries, each paired with its recorded pIC50 value.

{"compound": "COc1ccc(Nc2ncc3ccc(-c4cc(Cl)ccc4OC)n3n2)cc1 [Example 153]", "pIC50": "< 5.00"}
{"compound": "CN1CCN(c2ccc(Nc3ncc4ccc(C5CCCCC5)n4n3)cc2)CC1 [Example 123]", "pIC50": "6.00 to 7.00"}
{"compound": "CN1CCN(c2ccc(Nc3ncc4ccc(-c5cccc(S(=O)(=O)NC(C)(C)C)c5)n4n3)cc2)CC1 [Example 23]", "pIC50": "> 7.00"}
{"compound": "CN1CCN(c2ccc(Nc3ncc4ccc(-c5ccccc5OCC(=O)N(C)C)n4n3)cc2F)CC1 [Example 1404]", "pIC50": "6.00 to 7.00"}

// query pIC50 value for entry COc1ccc(-c2ccc3cnc(Nc4ccc5c(c4)CC(=O)N5C)nn23)cn1 [Example 384]
5.00 to 6.00
